protocol-text: Pharmacokinetic analysis in mice (plasma, LC/MS)
Assay type: in vivo
assay-setup: male, mouse, in vivo, sc, 2.5 umol/kg
Where a SMILES comes first, the peptide text is derived from it. The star is where a group is joined. Palmitoyl = CCCCCCCCCCCCCCCC(=O)*
measurement-kind: Tmax

>>> recorded_value("CCCCCCCCCCCCCCCC(=O)N[C@@H](CCSC)C(=O)NCC(=O)N[C@@H](Cc1ccc(O)cc1)C(=O)N[C@@H](CCC(N)=O)C(=O)N[C@@H](CCCCN)C(=O)N[C@@H](CCCCN)C(=O)N[C@@H](CC(C)C)C(=O)N[C@@H](CCCNC(=N)N)C(=O)N[C@@H](CO)C(=O)N[C@@H](CCSC)C(=O)N[C@H](C(=O)N[C@@H](CC(=O)O)C(=O)N[C@@H](CCCCN)C(=O)N[C@@H](Cc1ccc(O)cc1)C(=O)N[C@@H](CCCNC(=N)N)C(=O)N[C@@H](CC(C)C)C(N)=O)[C@@H](C)O [Compound 48] (Palmitoyl-MGYQKKLRSMTDKYRL-NH2)")
"2 h"

* * *

protocol-text: Pharmacokinetic analysis in mice (plasma, LC/MS)
Format: in vivo
assay-setup: male, mouse, in vivo, sc, 2.5 umol/kg
Where a SMILES comes first, the peptide text is derived from it. The star is where a group is joined. Palmitoyl = CCCCCCCCCCCCCCCC(=O)*
measurement-kind: MRT inf

>>> recorded_value("CCCCCCCCCCCCCCCC(=O)N[C@@H](CCSC)C(=O)NCC(=O)N[C@@H](Cc1ccc(O)cc1)C(=O)N[C@@H](CCC(N)=O)C(=O)N[C@@H](CCCCN)C(=O)N[C@@H](CCCCN)C(=O)N[C@@H](CC(C)C)C(=O)N[C@@H](CCCNC(=N)N)C(=O)N[C@@H](CO)C(=O)N[C@@H](CCSC)C(=O)N[C@H](C(=O)N[C@@H](CC(=O)O)C(=O)N[C@@H](CCCCN)C(=O)N[C@@H](Cc1ccc(O)cc1)C(=O)N[C@@H](CCCNC(=N)N)C(=O)N[C@@H](CC(C)C)C(N)=O)[C@@H](C)O [Compound 48] (Palmitoyl-MGYQKKLRSMTDKYRL-NH2)")
"2.6 h"

* * *

tgt: CXCR4 (Homo sapiens)
Construct: CCRF-CEM cells, a human T-cell ALL line that endogenously expresses CXCR4; endogenous in cells; host or cells: CCRF-CEM (human T-cell acute lymphoblastic leukemia line)
Sequence (P61073 whole entry): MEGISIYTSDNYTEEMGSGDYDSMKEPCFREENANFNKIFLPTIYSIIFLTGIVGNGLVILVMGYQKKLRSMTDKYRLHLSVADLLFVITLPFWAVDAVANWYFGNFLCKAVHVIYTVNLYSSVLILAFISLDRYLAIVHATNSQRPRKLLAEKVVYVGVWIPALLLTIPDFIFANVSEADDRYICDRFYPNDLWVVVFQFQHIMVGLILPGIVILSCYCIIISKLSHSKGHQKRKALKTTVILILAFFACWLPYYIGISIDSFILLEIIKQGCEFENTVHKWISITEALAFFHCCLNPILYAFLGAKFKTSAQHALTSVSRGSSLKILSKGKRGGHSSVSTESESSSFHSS
protocol-text: Calcium flux assay, agonist mode, Flexstation (CCRF-CEM cells)
Format: cell-based
assay-setup: CCRF-CEM, percent of maximum response compared with SDF-1α, read-out: % Intrinsic Activity
Where a SMILES comes first, the peptide text is derived from it. The star is where a group is joined. X1 = CCCCCCCCCCCCOCCC(=O)*
measurement-kind: Emax (%)

>>> recorded_value("CCCCCCCCCCCCOCCC(=O)NCC(=O)NCC(=O)N[C@@H](Cc1ccc(O)cc1)C(=O)N[C@@H](CCC(N)=O)C(=O)N[C@@H](CCCCN)C(=O)N[C@@H](CCCCN)C(=O)N[C@@H](CC(C)C)C(=O)N[C@@H](CCCNC(=N)N)C(=O)N[C@@H](CO)C(=O)N[C@@H](C)C(=O)N[C@H](C(=O)N[C@@H](CC(=O)O)C(=O)N[C@@H](CCCCN)C(=O)N[C@@H](Cc1ccc(O)cc1)C(=O)N[C@@H](CCCNC(=N)N)C(=O)N[C@@H](CC(C)C)C(N)=O)[C@@H](C)O [Compound 31] (X1-GGYQKKLRSATDKYRL-NH2; C-terminus assumed)")
84.2

* * *

protocol-text: Pharmacokinetic analysis in mice (plasma, LC/MS)
Format: in vivo
assay-setup: male, mouse, in vivo, 2.5 umol/kg
Where a SMILES comes first, the peptide text is derived from it. The star is where a group is joined. Palmitoyl = CCCCCCCCCCCCCCCC(=O)*
measurement-kind: bioavailability

>>> recorded_value("CCCCCCCCCCCCCCCC(=O)N[C@@H](CCSC)C(=O)NCC(=O)N[C@@H](Cc1ccc(O)cc1)C(=O)N[C@@H](CCC(N)=O)C(=O)N[C@@H](CCCCN)C(=O)N[C@@H](CCCCN)C(=O)N[C@@H](CC(C)C)C(=O)N[C@@H](CCCNC(=N)N)C(=O)N[C@@H](CO)C(=O)N[C@@H](CCSC)C(=O)N[C@H](C(=O)N[C@@H](CC(=O)O)C(=O)N[C@@H](CCCCN)C(=O)N[C@@H](Cc1ccc(O)cc1)C(=O)N[C@@H](CCCNC(=N)N)C(=O)N[C@@H](CC(C)C)C(N)=O)[C@@H](C)O [Compound 48] (Palmitoyl-MGYQKKLRSMTDKYRL-NH2)")
"< 30%"

Source listed as patent US9155795B2.
